# study_system: Histamine N-methyltransferase (Homo sapiens)
# method_summary: Primary Screen for Target Class Profiling of Small Molecule Inhibitors of Methyltransferases; further: on the % scale 0 is the no-effect control and ±100 the full control effect
# assay_conditions: purified enzyme, MTase-Glo SAH luminescence; measured here: HNMT inhibition; at 40 µM; stronger effect = lower value
# Experimental: PI: Matthew D. Hall Ph.D. and Quinlin M. Hanson Ph.D. National Center for Advancing Translational Sciences (NCATS) National Institute of Health (NIH), Rockville, MD […] High-through put screening assays were developed at the National Center for Advancing Translational Science (NCATS) for the enzymes NNMT, PNMT, HNMT, GNMT, COMT, and GAMT. Enzymatic activity was measured as a function of SAM cofactor conversion using the MTase Glo kit (Promega) for all enzymes. […]
The campaign covered roughly 25,000 compounds. About 970 (3.9%) were called active. Not shown: some 8% with an inconclusive outcome. Many of the other results were omitted from the sample, so actives are more common in it than they were.
property_label: activity change, negative = inhibition (%)
Write down the numeric answer in % and omit the unit.

Example entries begin here.
>>> measured_value("CCOC(=O)c1cc(Nc2ccc(C(C)=O)cc2)c2cc(Cl)ccc2n1")
0.863
>>> measured_value("COc1ccc(C2Cn3nnc(-c4noc(C5CCC5)n4)c3CO2)cc1 (stereo not drawn)")
-7.42
>>> measured_value("Cc1cc(C(=O)N2CCCCCC2CN2CCC(C)CC2)nn1C (stereo not drawn)")
0.525

// below: activity change, negative = inhibition requested for another compound
*Q* State activity change, negative = inhibition (Histamine N-methyltransferase (Homo sapiens)) of CN1C(=O)c2cc(C(=O)NCCc3cccs3)nn2CC1(C)C(=O)NCc1ccc(F)cc1 (stereo not drawn) .
*A* -2.18

###

activity change, negative = inhibition overview
# study_system: Histamine N-methyltransferase (Homo sapiens) (UniProt P50135)
# Sequence (P50135 whole entry, looked up): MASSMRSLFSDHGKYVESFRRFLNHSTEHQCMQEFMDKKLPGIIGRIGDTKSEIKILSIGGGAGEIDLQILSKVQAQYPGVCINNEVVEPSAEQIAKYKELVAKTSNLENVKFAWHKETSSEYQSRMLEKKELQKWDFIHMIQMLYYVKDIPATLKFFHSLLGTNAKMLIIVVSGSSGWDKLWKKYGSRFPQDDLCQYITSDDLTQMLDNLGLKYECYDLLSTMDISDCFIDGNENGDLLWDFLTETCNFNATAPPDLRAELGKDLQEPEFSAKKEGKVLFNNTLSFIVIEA
# method_summary: Primary Screen for Target Class Profiling of Small Molecule Inhibitors of Methyltransferases; further: on the % scale 0 is the no-effect control and ±100 the full control effect
# assay_conditions: purified enzyme, MTase-Glo SAH luminescence; measured here: HNMT inhibition; at 40 µM; stronger effect = lower value
# Procedure: PI: Matthew D. Hall Ph.D. and Quinlin M. Hanson Ph.D. National Center for Advancing Translational Sciences (NCATS) National Institute of Health (NIH), Rockville, MD […] High-through put screening assays were developed at the National Center for Advancing Translational Science (NCATS) for the enzymes NNMT, PNMT, HNMT, GNMT, COMT, and GAMT. Enzymatic activity was measured as a function of SAM cofactor conversion using the MTase Glo kit (Promega) for all enzymes. […]
Hit rate of the full screen: of about 25,000 compounds, about 970 (3.9%) were called active. About 8% were inconclusive and are not listed. The list comes from a sample in which actives are over-represented; it also holds close analogues and randomly drawn compounds.
Write down the numeric answer in % and omit the unit.

>>> measured_value("Cc1cc(Cl)ccc1OCC(=O)N1CC(CO)C2(CCNCC2)C1 (centres undefined)")
-7.34
>>> measured_value("CSc1cccc(CN(C)Cc2cc3n(n2)CCNC3)c1")
-2.05

*Q* State activity change, negative = inhibition (Histamine N-methyltransferase (Homo sapiens) (UniProt P50135)) of C[C@@H]1CC[C@]2(C(=O)O[C@@H]3O[C@H](CO)[C@@H](O)[C@H](O)[C@H]3O)CC[C@]3(C)C(=CCC4[C@@]5(C)C[C@@H](O)[C@H](O)[C@](C)(C(=O)O)C5CC[C@]43C)[C@@H]2[C@]1(C)O (some centres undefined) .
*A* 15.1

*Q* State activity change, negative = inhibition (Histamine N-methyltransferase (Homo sapiens) (UniProt P50135)) of CCCNC(=O)Cn1ccc2cc(S(=O)(=O)N3CCCCC3)ccc21 .
*A* 7.8

*Q* State activity change, negative = inhibition (Histamine N-methyltransferase (Homo sapiens) (UniProt P50135)) of COc1ccc(NC(=O)c2ccc(-c3ccc(C(N)=O)cc3C)cc2)cc1N1CCN(C)CC1 .
*A* -26

*Q* State activity change, negative = inhibition (Histamine N-methyltransferase (Homo sapiens) (UniProt P50135)) of Clc1cc(NCc2ccccn2)n2nccc2n1 .
*A* -0.734

*Q* State activity change, negative = inhibition (Histamine N-methyltransferase (Homo sapiens) (UniProt P50135)) of O=C(/C=C/c1ccc(CN(CCO)CCc2c[nH]c3ccccc23)cc1)NO .
*A* -68.8

###

# study_system: Glycine N-methyltransferase (Homo sapiens)
# method_summary: Primary Screen for Target Class Profiling of Small Molecule Inhibitors of Methyltransferases; further: on the % scale 0 is the no-effect control and ±100 the full control effect
# assay_conditions: purified enzyme, MTase-Glo SAH luminescence; measured here: GNMT inhibition; at 40 µM; stronger effect = lower value
The whole screen tested about 25,000 compounds, of which about 970 (3.9%) were called active. Inconclusive results (about 8%) are left out. What follows is part of a selection rich in actives, with near analogues and random picks from the rest.
activity change, negative = inhibition overview
Write down the numeric answer in % and omit the unit.

Example entries begin here.
>>> measured_value("Cc1cc(C)c(S(=O)(=O)NCCc2nc(-c3ccc(Cl)cc3)n[nH]2)cc1C")
0.532
>>> measured_value("CC(=O)c1cnc2ccc(-c3cc(Cl)c(O)c(Cl)c3)nc2c1NC1CCC(CN(C)C)CC1 (stereo not given)")
-9.49
>>> measured_value("CC1(C(=O)NC2CCCCC2)Cn2c(nc3ccccc32)C(=O)N1CCCc1ccccc1 (stereo not given)")
-0.457
>>> measured_value("COCCCn1c(=O)[nH]c2cccnc21")
-5.17
>>> measured_value("O=S(=O)(c1ccc2[nH]c3c(c2c1)CCCC3)N1CCN(Cc2ccccc2)CC1")
5.6
>>> measured_value("CC1(C=O)CC[C@]2(C(=O)O[C@@H]3O[C@H](CO)[C@@H](O)[C@H](O)[C@H]3O)CC[C@]3(C)C(=CCC4[C@@]5(C)C[C@H](O)[C@H](O[C@@H]6OC[C@@H](O)[C@H](O)[C@H]6O)[C@@](C)(CO)C5CC[C@]43C)C2C1 (stereo not given in full)")
-0.721
>>> measured_value("Cc1ccc(N2C(=O)c3cc4sccc4n3CC2(C)C(=O)NC2CCCCC2C)cc1 (stereo not given)")
-2.03
>>> measured_value("CCCCN1C(=O)c2cc(C(=O)NCc3cccc(OC)c3)nn2CC1(C)C(=O)NC1CCCC1 (stereo not given)")
5.79
>>> measured_value("CN(C)CCN(C)[C@H]1[C@@H]2OC[C@@H](O2)[C@@H](NCc2ccc(N(C)C)cc2)[C@@H]1O")
0.488

// below: activity change, negative = inhibition requested for another compound
*Q* Identify activity change, negative = inhibition associated with the compound COc1ccc(C(=O)N2CCC3(CC2)CCC(O)(CN(C)C)CC3)cc1OC
*A* -0.206

###

# study_system: Phenylethanolamine N-methyltransferase (Homo sapiens) (UniProt P11086)
# Sequence (P11086 whole entry, looked up): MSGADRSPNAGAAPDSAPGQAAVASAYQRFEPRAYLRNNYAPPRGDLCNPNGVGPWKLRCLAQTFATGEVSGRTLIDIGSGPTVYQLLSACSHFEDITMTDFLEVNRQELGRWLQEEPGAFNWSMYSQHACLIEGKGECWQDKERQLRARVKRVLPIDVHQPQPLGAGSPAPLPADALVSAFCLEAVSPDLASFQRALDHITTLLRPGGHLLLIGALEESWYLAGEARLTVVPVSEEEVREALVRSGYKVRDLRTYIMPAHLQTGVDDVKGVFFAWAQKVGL
# method_summary: Primary Screen for Target Class Profiling of Small Molecule Inhibitors of Methyltransferases; further: on the % scale 0 is the no-effect control and ±100 the full control effect
# assay_conditions: purified enzyme, MTase-Glo SAH luminescence; measured here: PNMT inhibition; at 40 µM; stronger effect = lower value
Out of some 25,000 compounds screened, about 970 (3.9%) were called active. Roughly 8% stayed inconclusive and do not appear here. Shown is part of a subset that was picked to be rich in actives.
activity change, negative = inhibition overview
Write down the numeric answer in % and omit the unit.

>>> measured_value("CCn1cc(S(=O)(=O)N2CCC(C3CCN(C(=O)NC)CC3)C2)cn1 (configuration not stated)")
9.89
>>> measured_value("COc1ccccc1-c1[nH]nc2ncc(C(=O)N3CCN(Cc4ccccc4)CC3)nc12")
-76.7
>>> measured_value("Cn1c(=O)c2ccc(C(=O)NC3CCCCC3)cc2n2c(SCc3cccc(Cl)c3)nnc12")
5.9
>>> measured_value("Cc1c(NC(=O)c2cc(C(N)=O)nc3cc(F)ccc23)c(C(F)(F)F)nn1Cc1ccc(C#N)cc1")
1.39
>>> measured_value("CN1CCCN(S(=O)(=O)c2cccs2)c2ccccc21")
-18.8
>>> measured_value("CCOCCCN1C(=O)c2cc3ccccc3n2CC1(C)C(=O)NCCC(C)C (configuration not stated)")
0.52
>>> measured_value("CN(CCCNC(=O)CCCc1nnc2n3nc(-c4ccccc4)nc3c3ccccc3n12)Cc1ccccc1")
-4.78
>>> measured_value("Cc1cc2c(cc3n2CC(C)(C(=O)NC2CCCCC2)N(C2CCCCCC2)C3=O)o1 (configuration not stated)")
-2.76
>>> measured_value("COc1cccc(-c2nnc3n(CCc4ccccc4)c(=O)c4ccccc4n23)c1O")
0.274
>>> measured_value("COc1ccc(S(=O)(=O)N2CCCCC2c2n[nH]c(C)n2)cc1 (configuration not stated)")
11.2

*Q* State activity change, negative = inhibition (Phenylethanolamine N-methyltransferase (Homo sapiens) (UniProt P11086)) of O=C(O)CC1CCC(c2ccc(-c3ccc(Nc4ccc(C(F)(F)F)nc4)cn3)cc2)CC1 (configuration not stated) .
*A* -4.28

*Q* State activity change, negative = inhibition (Phenylethanolamine N-methyltransferase (Homo sapiens) (UniProt P11086)) of CC1(C(=O)NC2CCCCC2)Cn2c(ccc2-c2ccccc2)C(=O)N1CCC1=CCCCC1 (configuration not stated) .
*A* 6.08

*Q* State activity change, negative = inhibition (Phenylethanolamine N-methyltransferase (Homo sapiens) (UniProt P11086)) of Cc1cc(C(=O)N2CCCCCC2CN2CCC(C)CC2)nn1C (configuration not stated) .
*A* -1.05
